# System: P. aeruginosa ATCC 35151
# METHOD DESCRIPTION: microbe, parasite or virus in culture
# Format: cell-based
# SETUP CONDITIONS: Pseudomonas aeruginosa, ATCC35151, read-out: MIC P. aeruginosa ATCC 35151
Recorded MIC by entry
TEST READOUT: MIC

COMPOUND	OBS VALUE
O=C1CC[C@H](C(=O)NC(C(=O)N[C@H]2Cc3cccc(C(=O)O)c3OB2O)c2ccc(P(=O)(O)O)cc2)N1 (stereo partly drawn) [Example 53]	8 to 16 µg/mL
CS(=O)(=O)N1CCC[C@@H]1C(=O)N[C@H](C(=O)N[C@H]1Cc2cccc(C(=O)O)c2OB1O)c1ccc(P(=O)(O)O)cc1 [Example 34]	8 to 16 µg/mL
N#Cc1cccc(C(=O)N[C@@H](C(=O)N[C@H]2Cc3cccc(C(=O)O)c3OB2O)c2ccc(P(=O)(O)O)cc2)n1 [Example 180]	2 to 4 µg/mL
Cn1cccc(C(=O)N[C@@H](C(=O)N[C@H]2Cc3cccc(C(=O)O)c3OB2O)c2ccc(P(=O)(O)O)cc2)c1=O (single isomer, unassigned) [Example 182]	< 1 µg/mL
CC(C)C(=O)NC(C(=O)N[C@H]1Cc2cccc(C(=O)O)c2OB1O)c1ccc(P(=O)(O)O)cc1 (stereo partly drawn) [Example 28]	8 to 16 µg/mL
O=C(O)c1cccc2c1OB(O)[C@@H](NC(=O)[C@H](NC(=O)[C@@H]1CCCN1)c1ccc(P(=O)(O)O)cc1)C2 [Example 173]	8 to 16 µg/mL

----------
# Tested on: B. humptydooensis ATCC BAA-2767
# METHOD DESCRIPTION: microbe, parasite or virus in culture
# Type: cell-based
# SETUP CONDITIONS: Burkholderia humptydooensis, ATCCBAA2767, read-out: Minimum inhibitory concentration (MIC), B. humptydooensis ATCC BAA-2767
Listed compounds paired with reported MIC

COMPOUND	MIC
O=C(O)c1c(F)ccc2c1OB(O)[C@@H](NC(=O)C(NC(=O)N1CCN(C3CCN(C(=O)Nc4ccc(Cl)c(O)c4F)CC3)C(=O)C1=O)c1cc(F)c(O)c(O)c1Cl)C2 (stereo partly drawn)	32 to 64 µg/mL
O=C(NCCCN1CCN(C(=O)NC(C(=O)N[C@H]2Cc3ccc(F)c(C(=O)O)c3OB2O)c2cc(F)c(O)c(O)c2Cl)C(=O)C1=O)c1cc(F)ncc1F (mixture of isomers)	2 to 4 µg/mL
O=C(O)c1c(F)ccc2c1OB(O)[C@@H](NC(=O)[C@H](NC(=O)N1CCN(C3CCN(C(=O)Nc4c(F)ccc(O)c4Cl)CC3)C1=O)c1cc(F)c(O)c(O)c1Cl)C2 (single isomer, unassigned)	< 1 µg/mL

----------
# System: N. gonorrhoeae FA1090
# METHOD DESCRIPTION: Liquid broth MIC in Fastidious broth
# SETUP CONDITIONS: Neisseria gonorrhoeae, FA1090, read-out: Minimum Inhibitory Concentration (MIC), N. gonorrhoeae FA 1090
Reported values of MIC for individual entries
TEST READOUT: MIC

> print(dat)
                                   compound     obs.value
1  O=C(NCCN1CCN(C(=O)N[C@@H](C(=O)N[C@H]2Cc3ccc(F)c(C(=O)O)c3OB2O)c2cc(F)c(O)c(O)c2Cl)C(=O)C1=O)Nc1cccnc1  1 to 2 µg/mL
2  O=C1CC[C@@H](C(=O)NC(C(=O)N[C@H]2Cc3cccc(C(=O)O)c3OB2O)c2ccc(P(=O)(O)O)cc2)N1 (stereo partly drawn)  4 to 8 µg/mL
3  O=C(NCCCN1CCN(C(=O)NC(C(=O)N[C@H]2Cc3ccc(F)c(C(=O)O)c3OB2O)c2cc(F)c(O)c(O)c2Cl)C(=O)C1=O)c1ccccc1 (stereo partly drawn)  4 to 8 µg/mL
4  O=C(CN1CCN(C(=O)NC(C(=O)N[C@H]2Cc3ccc(F)c(C(=O)O)c3OB2O)c2cc(F)c(O)c(O)c2Cl)C(=O)C1=O)Nc1ccncc1 (stereo partly drawn)  1 to 2 µg/mL
5  O=C(O)c1cccc2c1OB(O)[C@@H](NC(=O)[C@H](NC(=O)c1cnc3sccn3c1=O)c1ccc(P(=O)(O)O)cc1)C2 (single isomer, unassigned)     < 1 µg/mL
6  CS(=O)(=O)N1CCN(C(=O)NC(C(=O)N[C@H]2Cc3cccc(C(=O)O)c3OB2O)c2ccc(P(=O)(O)O)c(F)c2)C1=O (stereo partly drawn)     < 1 µg/mL

This collection of values is drawn from patent US20240270762A1.
